testedTarget: LYN (human)
testName: KINOMEscan competition binding
conditionSummary: compound 10.0 µM
Property: kinase still bound, per cent of control; scope: individual compounds
Give your result in % as a bare value.

Known kinase still bound, per cent of control results, listed for orientation:
COc1cc(C(=O)N2CCC(N3CCN(C)CC3)CC2)ccc1Nc1ncc2c(n1)N(C)c1ccccc1C(=O)N2C : 100
Cc1n[nH]c2ccc(-c3cncc(OC[C@@H](N)Cc4c[nH]c5ccccc45)c3)cc12 : 100
CNC(=O)c1ccc(Nc2cc(Nc3ccccc3S(=O)(=O)C(C)C)c3cc[nH]c3n2)nc1 : 22
CN(C)C/C=C/C(=O)Nc1ccc(C(=O)Nc2cccc(Nc3nccc(-c4cccnc4)n3)c2)cc1 : 100
CCN1CCN(C(=O)Cc2ccc(Nc3ncc(F)c(Nc4ccc(C(=O)Nc5ccccc5Cl)cc4)n3)cc2)CC1 : 46

Inquiry: Respond only with kinase still bound, per cent of control recorded for `O=C(Nc1cccc(Nc2ncc(Br)c(NCCc3cnc[nH]3)n2)c1)N1CCCC1`
Reply text: 24

Inquiry: For the compound `C[C@@H](Oc1cc(-c2cnn(C3CCNCC3)c2)cnc1N)c1c(Cl)ccc(F)c1Cl` , report kinase still bound, per cent of control.
Reply text: 13

Inquiry: Output kinase still bound, per cent of control of `CS(=O)(=O)N1CCN(Cc2cc3nc(-c4cccc5[nH]ncc45)nc(N4CCOCC4)c3s2)CC1`
Reply text: 100
